B1: Caulobacter ParB omega fusion; a variant is named by its letters at X, in order, B8GW30 (parent)
chain: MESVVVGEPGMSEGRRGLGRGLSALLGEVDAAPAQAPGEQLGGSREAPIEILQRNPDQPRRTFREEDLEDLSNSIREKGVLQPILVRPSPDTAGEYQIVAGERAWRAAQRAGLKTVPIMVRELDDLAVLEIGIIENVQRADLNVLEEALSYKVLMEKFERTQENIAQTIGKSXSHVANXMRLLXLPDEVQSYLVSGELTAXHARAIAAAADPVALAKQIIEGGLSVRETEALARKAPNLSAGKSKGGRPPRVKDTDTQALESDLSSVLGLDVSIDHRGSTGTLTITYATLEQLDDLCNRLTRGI

Variants of: B1
Test: one-hybrid fitness for binding NBS DNA (the Noc-binding site; scaled: cognate 1, non-cognate 0); higher = stronger binding
Settings: with NBS DNA site
Whole data set: some 81,000 sequences, median “one-hybrid fitness for binding NBS DNA” near -0.1, cut for the highest 2% near 0.36. The full list was thinned out, with the highest values kept by preference.
ENDPOINT_LABEL: one-hybrid fitness for binding NBS DNA

Sample answers from the record:
Ask | Report one-hybrid fitness for binding NBS DNA for "FRYF" please.
Reply | ≤ 0.2

Ask | Fill blank: measured one-hybrid fitness for binding NBS DNA of the variant "QRAA" is ____.
Reply | 0.617

Ask | Which one-hybrid fitness for binding NBS DNA is listed for "QINS" ?
Reply | 0.329

Ask | Endpoint output: one-hybrid fitness for binding NBS DNA of "VMLE" . Value?
Reply | ≤ 0.2

Ask | Value lookup for one-hybrid fitness for binding NBS DNA; key = "LIAK"
Reply | ≤ 0.2

List reported one-hybrid fitness for binding NBS DNA for each of these variants:
1. RSQG
2. NTLF
3. QMHR
4. QMQR
5. QMRR

Reply |
1: ≤ 0.2; 2: ≤ 0.2; 3: 0.647; 4: 0.55; 5: 1.02

Quick batch: one-hybrid fitness for binding NBS DNA for everything below.
1. QMHN
2. FCHW
3. CLSP
4. IAHC
5. IMNC
6. KYRQ

Reply |
1: ≤ 0.2; 2: ≤ 0.2; 3: ≤ 0.2; 4: ≤ 0.2; 5: ≤ 0.2; 6: ≤ 0.2

// each listed variant needs a value for one-hybrid fitness for binding NBS DNA
1. KQKT
2. QMWS

Reply |
[0.222, 0.261]

Quick request: one-hybrid fitness for binding NBS DNA for each listed item, please.
1. QMNC
2. IAAT
3. RCHA
4. GRQQ

Reply |
1. ≤ 0.2
2. ≤ 0.2
3. 0.307
4. ≤ 0.2

// each variant listed below needs its one-hybrid fitness for binding NBS DNA
1. CHMT
2. QPNS
3. TSSQ
4. MHTW
5. MQVF
6. KVWM
7. RCQH

Reply |
1: ≤ 0.2; 2: ≤ 0.2; 3: 0.493; 4: ≤ 0.2; 5: ≤ 0.2; 6: ≤ 0.2; 7: 0.228

Batch of 7 variants: report one-hybrid fitness for binding NBS DNA for each.
1. QKDF
2. LNTG
3. RLRA
4. QSWR
5. NPHC
6. VWNG
7. RRQS

Reply |
≤ 0.2
≤ 0.2
0.295
0.365
≤ 0.2
≤ 0.2
0.69

Please report one-hybrid fitness for binding NBS DNA for every entry that follows.
1. TRWG
2. RRCA
3. VQGT
4. QMYR
5. QPFA
6. QRWD
7. QMYF
8. APCY

Reply |
≤ 0.2
0.584
≤ 0.2
0.507
≤ 0.2
≤ 0.2
≤ 0.2
≤ 0.2

Please state one-hybrid fitness for binding NBS DNA for every variant in the list that follows.
1. QSFQ
2. SWHQ
3. LRFR
4. QIWR

Reply |
1: ≤ 0.2; 2: ≤ 0.2; 3: ≤ 0.2; 4: 0.304

The reported numbers originate from a collection of fitness landscapes (doi:10.1016/j.celrep.2020.107928).
